Experiment: qHTS RealTime-Glo MT Cell Viability Assay in HEK293 cells - 40 hour (AID 1224874); also: % is scaled to controls: 0 for no effect and ±100 for the full control effect; nearly all actives have a fitted effect of over 50% in size
Details: RealTime-Glo luminescence; active compounds read low
Source text: U.S. Tox21 Program National Center for Advancing Translational Sciences [NCATS] NIH Chemical Genomics Center [NCGC] U.S. Environmental Protection Agency [EPA] National Institutes of Environmental Health Sciences [NIEHS] National Toxicology Program [NTP] U.S. Food and Drug Administration [FDA] Tox21 Assay Overview: Measure of cell viability is critical in the cell-base assay. Analysis of cell viability is necessary for the characterization of cell responses to cytotoxic drugs and environmental stress. […]
Results filed as inconclusive are left out.

| Molecule | Reading Unit | max response |
| --- | --- | --- |
| O=C(O)CNC(=O)c1ccccc1 | % | -1.85 |
| CCN[C@H]1C[C@H](C)S(=O)(=O)c2sc(S(N)(=O)=O)cc21 | % | -0.522 |
| CC[N+](CC)(CC)CCOc1cccc(OCC[N+](CC)(CC)CC)c1OCC[N+](CC)(CC)CC | % | 2.7 |
| CC(=O)N[C@H]1[C@H]([C@H](O)[C@H](O)CO)OC(C(=O)O)=C[C@@H]1N=C(N)N | % | 2.18 |
| CC1=NN(c2cccc(S(=O)(=O)O)c2)C(=O)C1 | % | 2.46 |
| CN(C)CCCN(C)CCCN(C)C | % | -6.89 |
| FB(F)F | % | -1.41 |
| CN1C(C)(C)CC(O)CC1(C)C | % | 2.49 |
| C[N+]1(C)CCCC(OC(=O)C(O)(c2ccccc2)c2ccccc2)C1 (centres undefined) | % | -4.47 |
| O=S(=O)(O)c1cc(O)c(O)c(S(=O)(=O)O)c1 | % | 0.173 |
| CC1CCC(CO)CC1 (centres undefined) | % | 9.47 |
| OCCCCCO | % | 4.41 |
| C[N+]12CCC(CC1)C(OC(=O)C(O)(c1ccccc1)c1ccccc1)C2 (centres undefined) | % | 4.99 |
| Cc1ccc(C(=O)c2ccc(CC(=O)O)n2C)cc1 | % | 1.68 |
